# target: OR52D1 (Homo sapiens)
# Sequence (whole entry): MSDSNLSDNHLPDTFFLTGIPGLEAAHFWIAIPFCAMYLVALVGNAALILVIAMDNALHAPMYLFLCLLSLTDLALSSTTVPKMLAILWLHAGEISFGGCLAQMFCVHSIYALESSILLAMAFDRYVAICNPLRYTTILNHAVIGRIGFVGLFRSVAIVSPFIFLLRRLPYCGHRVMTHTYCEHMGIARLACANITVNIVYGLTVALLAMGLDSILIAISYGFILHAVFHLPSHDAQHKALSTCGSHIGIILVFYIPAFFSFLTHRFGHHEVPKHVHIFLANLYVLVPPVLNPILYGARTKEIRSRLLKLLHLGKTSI
# assay.conditions: stereoisomer not certain
Result category, one only: active, inactive

Recorded call for CCCCCCCC(C)O (stereo not given) ?
active

Recorded call for CCCCC(S)C(C)CO (stereo not given) ?
inactive

Recorded call for CCCCCC1C(=O)CCC1CC(=O)OC (stereo not given) ?
inactive

Recorded call for CC1=NC(C)C(C)S1 (stereo not given) ?
inactive

Recorded call for CCCCCCCCCO ?
active

Recorded call for Cc1cnccn1 ?
inactive

Recorded call for CC1CCC(C(C)C)C(=O)C1 (stereo not given) ?
inactive

---

# target: UniProt Q8VGX5
# Sequence (whole entry): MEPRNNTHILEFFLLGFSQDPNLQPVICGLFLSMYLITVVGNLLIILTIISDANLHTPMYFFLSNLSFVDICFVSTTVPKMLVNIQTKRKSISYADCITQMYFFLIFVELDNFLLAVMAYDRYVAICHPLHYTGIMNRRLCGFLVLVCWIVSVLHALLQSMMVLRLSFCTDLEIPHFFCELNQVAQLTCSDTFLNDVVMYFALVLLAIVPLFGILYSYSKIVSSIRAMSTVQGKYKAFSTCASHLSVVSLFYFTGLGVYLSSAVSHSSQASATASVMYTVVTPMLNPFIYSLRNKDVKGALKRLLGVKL
# assay.conditions: stereoisomer not certain
Result category, one only: T = active, F = inactive

Please review the entries below; each comes with its answer.
CC(=O)OCc1ccc2c(c1)OCO2 ... F
CCCCCCCCCCO ... F
CC(=O)Oc1ccccc1 ... T
O=C(O)CCCCCCCCC(=O)O ... F
CCCC(=O)C(C)=O ... F

Here is the next item to consider.
Recorded call for CCCCOC=O ?
F

---

# target: OR2W1 (Homo sapiens) (UniProt Q9Y3N9)
# Sequence (Q9Y3N9 whole entry): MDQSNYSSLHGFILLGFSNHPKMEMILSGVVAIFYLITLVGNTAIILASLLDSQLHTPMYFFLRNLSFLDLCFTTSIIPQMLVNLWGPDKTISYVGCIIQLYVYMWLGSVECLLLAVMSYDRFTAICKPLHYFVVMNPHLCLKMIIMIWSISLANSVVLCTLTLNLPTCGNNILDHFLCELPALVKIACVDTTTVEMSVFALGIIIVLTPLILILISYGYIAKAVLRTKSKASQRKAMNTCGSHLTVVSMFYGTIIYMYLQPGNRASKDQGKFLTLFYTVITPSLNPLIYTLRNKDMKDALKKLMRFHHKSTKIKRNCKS
# assay.conditions: stereoisomer not certain
Result category, one only: t = active, f = inactive

Recorded call for C=CC(=O)CCCCC ?
t

Recorded call for CCOC(=O)CCC(C)C ?
t

Recorded call for C=CC(=C)CCC=C(C)C ?
t

Recorded call for COc1nccnc1C(C)C ?
f

Recorded call for SCc1cccs1 ?
t

Recorded call for CCCSSCCC ?
t

Recorded call for CCCCC(CC)CCC(=O)O (stereo not drawn) ?
f

Recorded call for C=CCOC(=O)CCCCCC ?
f

Recorded call for C=C(C)c1ccc(C)cc1 ?
t

Recorded call for CCCC(=O)C(C)CC (stereo not drawn) ?
f

Recorded call for CCCCCCCC(=O)[O-].[H+] ?
t

---

# Tested on: OR8U9 T2A Q3H Q293R
# assay.conditions: stereoisomer not certain
measurement.type: odorant receptor agonist call

CC1=NC(C)C(C)S1 (stereo unspecified) ... inactive
CC1=C(O)C(=O)C(C)O1 (stereo unspecified) ... inactive
CCC1OC(=O)C(O)=C1C (stereo unspecified) ... inactive
CCC1OC(C)=C(O)C1=O (stereo unspecified) ... inactive
CC1=C(O)C(=O)OC1C (stereo unspecified) ... inactive

Now for the compound whose odorant receptor agonist call we want.
The reported value for CCCCCCC=CCCC=O in terms of odorant receptor agonist call is inactive

---

# target: UniProt Q9WU94
# Sequence (Q9WU94 as listed by the source): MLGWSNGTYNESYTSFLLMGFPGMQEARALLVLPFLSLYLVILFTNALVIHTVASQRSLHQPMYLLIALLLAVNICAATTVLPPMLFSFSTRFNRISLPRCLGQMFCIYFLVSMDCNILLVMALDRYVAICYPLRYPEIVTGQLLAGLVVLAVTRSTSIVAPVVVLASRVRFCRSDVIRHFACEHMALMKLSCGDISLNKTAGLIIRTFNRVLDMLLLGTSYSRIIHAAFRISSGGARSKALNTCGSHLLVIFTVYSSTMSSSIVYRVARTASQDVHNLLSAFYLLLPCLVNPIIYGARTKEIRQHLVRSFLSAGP
# assay.conditions: stereoisomer not certain
Result category, one only: true for active, false for inactive

Recorded call for CCCCCCO ?
false

Recorded call for CCCCCCCO ?
false

Recorded call for O=C(O)CCCCBr ?
false

Recorded call for O=C([O-])CCCCCCCC(=O)[O-].[H+].[H+] ?
true

Recorded call for CCCCCCCCCC(=O)[O-].[H+] ?
false

---

# target: UniProt Q8VGD7
# Sequence (Q8VGD7 as listed by the source): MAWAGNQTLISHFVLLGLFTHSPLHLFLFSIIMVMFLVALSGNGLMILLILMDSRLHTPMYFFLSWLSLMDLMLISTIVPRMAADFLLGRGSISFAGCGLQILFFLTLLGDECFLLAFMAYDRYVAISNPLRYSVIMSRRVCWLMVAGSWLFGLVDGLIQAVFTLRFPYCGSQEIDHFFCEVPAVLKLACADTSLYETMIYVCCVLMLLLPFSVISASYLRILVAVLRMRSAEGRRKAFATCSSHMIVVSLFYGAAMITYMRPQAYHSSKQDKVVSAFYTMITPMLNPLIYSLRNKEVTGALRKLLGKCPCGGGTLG
# assay.conditions: stereoisomer not certain
measurement.type: odorant receptor agonist call

Use these answered entries as a reference point.
CCOC(=O)C(C)C ... inactive
CC(C)=CCCC(C)CCO (stereo unspecified) ... inactive
CCCCCC=O ... inactive
CCCCC(=O)CC ... inactive

The reported value for CCCCCCOC(C)=O in terms of odorant receptor agonist call is inactive

The reported value for CCCCCCC(C)=O in terms of odorant receptor agonist call is inactive

---

# target: OR1D2 (Homo sapiens) (UniProt P34982)
# Sequence (whole entry): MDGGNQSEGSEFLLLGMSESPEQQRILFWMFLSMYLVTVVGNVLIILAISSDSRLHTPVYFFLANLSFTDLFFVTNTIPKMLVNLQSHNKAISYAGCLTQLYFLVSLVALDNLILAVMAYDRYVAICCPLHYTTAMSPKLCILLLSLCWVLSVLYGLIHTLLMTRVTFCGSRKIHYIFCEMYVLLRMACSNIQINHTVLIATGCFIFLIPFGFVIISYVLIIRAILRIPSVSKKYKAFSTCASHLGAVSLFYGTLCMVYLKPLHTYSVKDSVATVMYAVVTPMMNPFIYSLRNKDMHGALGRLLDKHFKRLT
# assay.conditions: stereoisomer not certain
measurement.type: odorant receptor agonist call

Use these answered entries as a reference point.
CCCCCCC=CCCC=O ... inactive
CC(C)c1ccccc1 ... inactive
O=C(O)CCc1ccccc1 ... inactive
CC(C)(C)c1ccc(OCC=O)cc1 ... active

odorant receptor agonist call on OR1D2 (Homo sapiens) (UniProt P34982) for Cc1cnc(C)c(C)n1 is inactive

odorant receptor agonist call on OR1D2 (Homo sapiens) (UniProt P34982) for CC(CC=O)c1ccccc1 (stereo not given) is active

odorant receptor agonist call on OR1D2 (Homo sapiens) (UniProt P34982) for CCCCC(S)C(C)CO (stereo not given) is inactive

odorant receptor agonist call on OR1D2 (Homo sapiens) (UniProt P34982) for CC1=NC(C)C(C)S1 (stereo not given) is inactive

---

# target: OR2AP1 (Homo sapiens)
# Sequence (whole entry): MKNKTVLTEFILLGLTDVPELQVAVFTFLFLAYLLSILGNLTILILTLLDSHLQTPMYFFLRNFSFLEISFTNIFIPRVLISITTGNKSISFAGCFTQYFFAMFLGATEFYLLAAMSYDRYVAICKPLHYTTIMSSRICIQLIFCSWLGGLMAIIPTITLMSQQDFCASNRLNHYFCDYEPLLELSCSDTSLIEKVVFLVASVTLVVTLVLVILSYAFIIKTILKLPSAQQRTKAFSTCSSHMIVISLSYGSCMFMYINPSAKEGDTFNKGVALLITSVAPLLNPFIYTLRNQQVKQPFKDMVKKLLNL
# assay.conditions: stereoisomer not certain
measurement.type: odorant receptor agonist call

Use these answered entries as a reference point.
CC(=O)c1c(C)c([N+](=O)[O-])c(C(C)(C)C)c([N+](=O)[O-])c1C ... inactive
CCC1OC(C)=C(O)C1=O (stereo not given) ... inactive
CC1=C(O)C(=O)OC1C (stereo not given) ... inactive
CCC1OC(=O)C(O)=C1C (stereo not given) ... inactive
CCCCCC(S)C(C)CO (stereo not given) ... inactive
CCCCC(S)C(C)CO (stereo not given) ... inactive
CCCCCC(=O)C(C)C(C)=O (stereo not given) ... inactive
CC1CCCCCCCCCCCCC(=O)C1 (stereo not given) ... inactive

The reported value for CCCCCCC=CCCC=O in terms of odorant receptor agonist call is inactive

The reported value for CC1=NC(C)C(C)S1 (stereo not given) in terms of odorant receptor agonist call is inactive

---

# Test system: OR6C1 C130Y H165D V246I
# assay.conditions: stereoisomer not certain
measurement.type: odorant receptor agonist call

Use these answered entries as a reference point.
CC1=NC(C)C(C)S1 (stereo unspecified) ... inactive
CCCCCCC=CCCC=O ... inactive
CC1=C(O)C(=O)C(C)O1 (stereo unspecified) ... inactive
CCCC(S)CCOC(C)=O (stereo unspecified) ... inactive
CCC1OC(=O)C(O)=C1C (stereo unspecified) ... inactive

Now for the compound whose odorant receptor agonist call we want.
The reported value for Cc1cnc(C)c(C)n1 in terms of odorant receptor agonist call is inactive

---

# System: OR5B2 E6D
# assay.conditions: stereoisomer not certain
measurement.type: odorant receptor agonist call

CCCC(S)CCOC(C)=O (centres undefined) ... inactive
CC1=C(O)C(=O)C(C)O1 (centres undefined) ... inactive
CCC1OC(C)=C(O)C1=O (centres undefined) ... inactive
Cc1cnc(C)c(C)n1 ... inactive

---

# target: OR2M7 (Homo sapiens) (UniProt Q8NG81)
# Sequence (whole entry): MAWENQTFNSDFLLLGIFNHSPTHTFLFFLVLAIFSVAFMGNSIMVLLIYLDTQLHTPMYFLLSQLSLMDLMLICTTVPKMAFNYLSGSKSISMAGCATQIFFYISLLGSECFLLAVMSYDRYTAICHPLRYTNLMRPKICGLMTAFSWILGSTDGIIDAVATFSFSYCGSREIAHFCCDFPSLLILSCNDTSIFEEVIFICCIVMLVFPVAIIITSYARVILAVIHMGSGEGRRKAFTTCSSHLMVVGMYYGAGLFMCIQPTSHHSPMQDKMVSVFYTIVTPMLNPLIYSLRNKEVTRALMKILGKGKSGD
# assay.conditions: stereoisomer not certain
Result category, one only: active, inactive

Please review the entries below; each comes with its answer.
CC(C)=CCCC(C)CCO (stereo not given) ... active
CCCCCCCCCO ... inactive
CCC1OC(C)=C(O)C1=O (stereo not given) ... inactive
CCCCCCCCCCO ... inactive
O=C1Cc2ccccc2O1 ... inactive

Here is the next item to consider.
Recorded call for CCCCCCCCO ?
inactive
